# assayed_target: hCRTH2 receptor (Homo sapiens, UniProt Q9Y5Y4)
# Construct: expressed in transfected cells
# Sequence (Q9Y5Y4 1-395): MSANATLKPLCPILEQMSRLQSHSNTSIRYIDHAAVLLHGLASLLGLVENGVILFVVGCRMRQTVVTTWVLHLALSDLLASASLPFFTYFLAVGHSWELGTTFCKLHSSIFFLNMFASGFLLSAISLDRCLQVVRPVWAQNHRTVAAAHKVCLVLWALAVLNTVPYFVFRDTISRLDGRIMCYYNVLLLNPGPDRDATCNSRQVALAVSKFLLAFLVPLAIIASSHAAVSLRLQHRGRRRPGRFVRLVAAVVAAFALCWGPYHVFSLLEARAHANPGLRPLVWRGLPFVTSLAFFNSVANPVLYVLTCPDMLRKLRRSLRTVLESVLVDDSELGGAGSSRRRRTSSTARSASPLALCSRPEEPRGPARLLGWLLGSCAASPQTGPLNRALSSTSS
# experimental_details: Intracellular calcium mobilization assay (FLIPR), PGD2 challenge
# Type: cell-based
# condition_set: HEK-293 cells stably expressing hCRTH2; 10 nM prostaglandin D2 as agonist
assay_endpoint: IC50 (nM)

- molecule: "CN(C(=O)C1(C)CCc2c(c3ccccc3n2CC(=O)O)C1)c1cccc(Cl)c1 (racemic) [Example B-10]"
  assayed_target: "hCRTH2 receptor (Homo sapiens, UniProt Q9Y5Y4)"
  IC50 / nM: 20

(a) CN(C(=O)C1CCc2c(c3ccccc3n2CC(=O)O)C1)C(c1ccccc1)c1ccccc1 (racemic) [Example A-42]
(b) CN(C(=O)C1CCc2c(c3cc([N+](=O)[O-])ccc3n2CC(=O)O)C1)c1ccccc1 (racemic)
Param pair: a , b . Output: the one whose IC50 is numerically greater. // return label of chosen record
a

----------
# assayed_target: hCRTH2 receptor (Homo sapiens, UniProt Q9Y5Y4)
# Construct: expressed in transfected cells
# experimental_details: Intracellular calcium mobilization assay (FLIPR), PGD2 challenge
# Type: cell-based
# condition_set: HEK-293 cells stably expressing hCRTH2; 10 nM prostaglandin D2 as agonist
pIC50: −log10 of the molar value.
assay_endpoint: pIC50

(I) O=C(O)Cn1c2c(c3cc(F)ccc31)CC(C(=O)N1CCc3ccccc31)CC2 (single isomer, unassigned; (+))
(II) CN(C(=O)C1CCc2c(c3ccccc3n2CC(=O)O)C1)c1ccccc1C(F)(F)F (racemic)
(III) O=C(O)Cn1c2c(c3cc(F)ccc31)CC(C(=O)N1CCN(c3ccc(F)cc3)CC1)CC2 (single isomer, unassigned; (-))
Order these molecules (above) by their pIC50, from the smallest value upward. I'd appreciate it if you listed the labels in the requested order.
III, II, I
(III: 6.22, II: 7.35, I: 7.55)

(A) CCC1(C(=O)N2CCc3ccccc32)CCc2c(c3ccccc3n2CC(=O)O)C1 (racemic)
(B) CN(C(=O)C1(C)CCc2c(c3ccccc3n2CC(=O)O)C1)c1ccccc1 (racemic)
Dear colleague, could you let me know whether A or B has the lower recorded pIC50? Thanks. Pick one; state its label.
A
(A: 7.17, B: 7.89)
